Read-out: Matrix Metallopeptidase 1 (MMP1), MMP1 (gene 4312)
Assay: BSK_hDFCGF_MMP1: BioMAP Diversity Plus: hDFCGF Assay for Matrix Metallopeptidase 1 (MMP1) Biomarker Activity (AID 2283064)
Settings: primary human foreskin fibroblasts; actives raise or lower the signal
Protocol: BSK_hDFCGF is a cell-based, multiplexed-readout assay that uses foreskin fibroblast, a human skin primary cell, with measurements taken at 24 hours after chemical dosing in a 96-well plate.BSK_hDFCGF_MMP1 is an assay component measured in the BSK_hDFCGF assay. It measures MMP-1 antibody related to regulation of gene expression using ELISA technology.Data from the assay component BSK_hDFCGF_MMP1 was analyzed into 1 assay endpoint. […]
The source made the active and inactive calls. How the source made its calls: active means hit-call score of the fitted dose curve at least 0.9, where 1 is the maximum; inactive means score below 0.9.
Select the matching outcome among Yes for active, No for inactive

A selection of reference data follows.
O=C(O)CCN(C1(C(=O)NO)CCCC1)S(=O)(=O)c1ccc(Oc2ccc(F)cc2)cc1 No
Cn1c(=O)cc(Oc2ccc(F)cc2F)c2cnc(NCC(C)(C)O)nc21 Yes
CC[C@H]1OC(=O)[C@H](C)[C@@H](O[C@H]2C[C@@](C)(OC)[C@@H](O)[C@H](C)O2)[C@H](C)[C@@H](O[C@@H]2O[C@H](C)C[C@H](N(C)C)[C@H]2O)[C@](C)(O)C[C@@H](C)C(=O)[C@H](C)[C@@H](O)[C@]1(C)O No

// switching to the query compound
Exercise: How was COC(=O)c1c(Cl)c(Cl)c(C(=O)OC)c(Cl)c1Cl classified in this test?
Solution: No

---

biological target: Myc proto-oncogene protein (Homo sapiens) (UniProt P01106); test: ATG_Myc_CIS: Attagene CIS-FACTORIAL HepG2 Assay for human Myelocytomatosis (Myc) Proto-Oncogene Transcription Factor (AID 2282990); settings: HepG2, Attagene cis-reporter transcription factor activity; actives raise or lower the signal
Sequence (P01106 whole entry, looked up): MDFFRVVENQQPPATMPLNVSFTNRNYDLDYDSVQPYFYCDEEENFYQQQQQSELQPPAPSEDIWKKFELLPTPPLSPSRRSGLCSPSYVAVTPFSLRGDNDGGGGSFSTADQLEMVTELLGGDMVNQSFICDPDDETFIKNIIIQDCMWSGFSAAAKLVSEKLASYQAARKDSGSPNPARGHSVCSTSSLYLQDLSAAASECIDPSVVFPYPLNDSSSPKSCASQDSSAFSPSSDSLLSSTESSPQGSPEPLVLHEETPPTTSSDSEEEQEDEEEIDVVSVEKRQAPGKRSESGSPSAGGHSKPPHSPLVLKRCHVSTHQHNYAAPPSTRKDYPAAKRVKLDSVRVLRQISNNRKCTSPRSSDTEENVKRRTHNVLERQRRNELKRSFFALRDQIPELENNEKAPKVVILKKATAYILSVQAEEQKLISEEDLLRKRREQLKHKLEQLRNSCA
Calls of active or inactive are those of the source. The calls were made as follows: active = hit-call score of the fitted dose curve at least 0.9, where 1 is the maximum; inactive = score below 0.9.
Result category, one only: YES (active), NO (inactive)

MOLECULE	CLASS_NAME
C1=CCCC=CCCC=CCC1	NO

Exercise: Call for entry Nc1cccc(N)c1 :
Solution: NO

Exercise: And what about the molecule CC(O)CN(CCN(CC(C)O)CC(C)O)CC(C)O (stereo not drawn) ?
Solution: NO

Exercise: How about CCCCC(CC)COC(=O)CCCCCCCCC(=O)OCC(CC)CCCC (stereo not drawn) ?
Solution: NO

Exercise: Lookup CC(=O)OC[C@H]1O[C@@](COC(C)=O)(O[C@H]2O[C@H](COC(C)=O)[C@@H](OC(C)=O)[C@H](OC(C)=O)[C@H]2OC(C)=O)[C@@H](OC(C)=O)[C@@H]1OC(C)=O
Solution: NO

Exercise: Next molecule up: CCc1cc(SCc2sc(-c3ccc(C(F)(F)F)cc3)nc2CN2CCN(c3ccc(OC)cc3)CC2)ccc1OCC(=O)O
Solution: NO

---

read-out: Monocyte Chemoattractant Protein-1 (MCP1), CCL2 (gene 6347); assay: BSK_SAg_MCP1: BioMAP Diversity Plus: SAg Assay for Monocyte Chemoattractant Protein-1 (MCP1) Biomarker Activity (AID 2283090); conditions: primary human HUVEC with PBMC; actives raise or lower the signal
Active and inactive are the calls of the source. The calls were made as follows: active = hit-call score of the fitted dose curve at least 0.9, where 1 is the maximum; inactive = score below 0.9.
Thanks in advance; please answer with one of these: true (active), false (inactive)

MOLECULE	CLASS_NAME
O=C(O)c1cc(N=Nc2ccc(S(=O)(=O)Nc3ccccn3)cc2)ccc1O	false
CCN(C(=O)c1cc(C)cc(OC[C@H](C)Nc2ccncc2)c1)C(C)C	false
Nc1ccc(Nc2ccccc2)cc1	true
CC(C)CCO	false
Clc1nc(Cl)c(Cl)c(Cl)c1Cl	true

Exercise: Test call for this molecule, please: On1ccccc1=S
Solution: true

Exercise: Same read-out for CNS(=O)(=O)c1cc(C(=O)N2CCC(CCN3C4CCC3CC(n3c(C)nc5ccccc53)C4)(c3cccc(F)c3)CC2)c(Cl)cc1F (stereo not given) ?
Solution: true

---

read-out: Interferon-gamma inducible Protein 10 (IP10), CXCL10 (gene 3627); test: BSK_KF3CT_IP10: BioMAP Diversity Plus: KF3CT Assay for Interferon-gamma inducible Protein 10 (IP10) Biomarker Activity (AID 2283068); details: primary human keratinocytes with fibroblasts; actives raise or lower the signal
Active and inactive are the calls of the source. Rule for the calls: active = hit-call score of the fitted dose curve at least 0.9, where 1 is the maximum; inactive = score below 0.9.
Response enum: T = active, F = inactive

A selection of reference data follows.
COMPOUND	CLASS_NAME
CCOC(=O)c1ccc(C2CCC(NC[C@H](O)COc3ccc(O)c(NS(C)(=O)=O)c3)CC2)cc1 (stereo partly specified)	F
CCn1nc(Cc2ccccc2)cc1C1CCN(C[C@H]2C[C@H](N(C)[C@@H](C(=O)O)C(C)C)C[C@@H]2c2cccc(F)c2)CC1	F

Kindly consider the entry below.
Exercise: Check the results log: what was the call for CC(=O)c1ccc2c(c1)[C@H](NC(=O)c1ccc(F)cc1)[C@@H](O)C(C)(C)O2 ?
Solution: F

---

target: human Adrenergic, Alpha 2A Receptor (Adra2A), ADRA2A (gene 150) (UniProt P08913); assay: NVS_GPCR_hAdra2A: NovaScreen (NVS) G Protein-Coupled Receptor Assay for human Adrenergic, Alpha 2A Receptor (Adra2A) (AID 2283257)
Sequence (P08913 whole entry, looked up): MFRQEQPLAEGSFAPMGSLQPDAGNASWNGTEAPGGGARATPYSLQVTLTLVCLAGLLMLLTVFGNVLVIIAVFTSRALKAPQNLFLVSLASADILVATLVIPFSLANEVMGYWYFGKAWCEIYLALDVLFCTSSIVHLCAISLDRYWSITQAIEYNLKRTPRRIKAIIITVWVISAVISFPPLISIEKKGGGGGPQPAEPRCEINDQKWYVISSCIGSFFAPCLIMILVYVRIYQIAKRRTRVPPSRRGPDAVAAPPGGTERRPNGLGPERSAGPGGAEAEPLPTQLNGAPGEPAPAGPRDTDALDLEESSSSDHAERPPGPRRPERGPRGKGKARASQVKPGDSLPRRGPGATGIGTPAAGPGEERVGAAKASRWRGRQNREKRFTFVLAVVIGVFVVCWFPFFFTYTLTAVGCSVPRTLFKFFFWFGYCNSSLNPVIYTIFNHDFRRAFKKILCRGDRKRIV
Records with an inconclusive call do not appear. The source made the active and inactive calls. Rule for the calls: active = hit-call score of the fitted dose curve at least 0.9, where 1 is the maximum; inconclusive = response in the unintended direction; inactive = score below 0.9.
Give one outcome, nothing more. List: active, inactive

Some solved cases for reference:
MOLECULE	CLASS_NAME
CCCN(C1CCN(C(=O)C2CCNCC2)CC1)[C@@H]1CCc2ccc(OC)cc2C1	active
COc1cccc(-c2ccc(/C=C\CN3CCCCCC3)cc2Cl)c1	active
O=C(O)CC(O)C(=O)O (centres undefined)	inactive

Exercise: Would you mind telling me which call this test gave O=c1[nH]c2ccc(S(=O)CCN3CCC(Cc4ccc(F)cc4)CC3)cc2o1 (centres undefined) ?
Solution: active

---

read-out: ABC Transporter (ABCB1), ABCB1 (gene 5243); test: LTEA_HepaRG_ABCB1: Life Technologies and Expression Analysis (LTEA) Assay for ABC Transporter (ABCB1) using HepaRG (AID 2283460); conditions: mRNA level, 48 h; actives raise or lower the signal
Calls of active or inactive are those of the source. How the source made its calls: active means hit-call score of the fitted dose curve at least 0.9, where 1 is the maximum; inactive means score below 0.9.
# output must be one of active, inactive

Example entries and their recorded answers appear below.
COMPOUND	CLASS_NAME
CC(C)CCCCCCCOC(=O)CCCCC(=O)OCCCCCCCC(C)C	inactive
Nc1cccc(N)c1	inactive
CCCCCCCCCCCCc1ccccc1	inactive
CC(C)CC(C)(O)C#CC(C)(O)CC(C)C (configuration not stated)	active
O=P(OC(CCl)CCl)(OC(CCl)CCl)OC(CCl)CCl	active
O=C(O)CCN(C1(C(=O)NO)CCCC1)S(=O)(=O)c1ccc(Oc2ccc(F)cc2)cc1	inactive

Exercise: Hi team, can someone confirm the assay call for CC1(C)C(=O)N(Br)C(=O)N1Br ?
Solution: inactive

Exercise: Try the compound CCOCCO
Solution: inactive

Exercise: Input O=C(CCCCCCCCc1cccnc1)N1CCC(C=C(c2ccccc2)c2ccccc2)CC1
Solution: active

Exercise: Param item: CN(C)c1ccc(Cc2ccc(N(C)C)cc2)cc1
Solution: inactive

Exercise: Entry to check: O=c1[nH]c2ccc(S(=O)CCN3CCC(Cc4ccc(F)cc4)CC3)cc2o1 (configuration not stated)
Solution: inactive

---

Read-out: CD40, CD40 (gene 958)
Assay: BSK_LPS_CD40: BioMAP Diversity Plus: LPS Assay for CD40 Biomarker Activity (AID 2283076)
Settings: primary human HUVEC with PBMC; actives raise or lower the signal
Description: BSK_LPS is a cell-based, multiplexed-readout assay that uses umbilical vein endothelium and peripheral blood mononuclear cells, a human vascular primary cell co-culture, with measurements taken at 24 hours after chemical dosing in a 96-well plate.BSK_LPS_CD40 is an assay component measured in the BSK_LPS assay. It measures CD40 antibody related to regulation of gene expression using ELISA technology.Data from the assay component BSK_LPS_CD40 was analyzed into 1 assay endpoint. […]
Activity calls are given as the source filed them. Rule for the calls: active = hit-call score of the fitted dose curve at least 0.9, where 1 is the maximum; inactive = score below 0.9.
PROPERTY_MEASURED: AC50

MOLECULE	AC50
Fc1ccccc1[C@@H](F)COC1CCC(Nc2ncnc3[nH]ncc23)CC1 (stereo partly drawn)	15.4 µM (active)
CC(C)=CCCC(C)=CC=O	inactive
CCCCCCCCO	inactive
COCCOc1cc2cc(C(=O)NC3CCN(C(C)C)CC3)n(CC(=O)Nc3ccc(Cl)cn3)c2cn1	inactive
CN(C)c1ccc(N=NS(=O)(=O)O)cc1	inactive

Exercise: Can you look up the measured AC50 of CC[C@H]1OC(=O)[C@H](C)[C@@H](O[C@H]2C[C@@](C)(OC)[C@@H](O)[C@H](C)O2)[C@H](C)[C@@H](O[C@@H]2O[C@H](C)C[C@H](N(C)C)[C@H]2O)[C@](C)(O)C[C@@H](C)C(=O)[C@H](C)[C@@H](O)[C@]1(C)O for me?
Solution: inactive

Exercise: And the next one, COc1ccc(/C=C/S(=O)(=O)NC(=O)c2ccc(C)cc2Cl)cc1 ?
Solution: inactive

Exercise: And then C1N2CN3CN1CN(C2)C3 , what is it?
Solution: inactive

Exercise: Next molecule: COc1ccc2sc(C(=O)Nc3nnn[nH]3)c(OC(C)C)c2c1
Solution: 7.18 µM (active)

Exercise: And what about the molecule Cc1[nH]cnc1C[C@H]1CCc2c(C)c3ccccc3n2C1=O ?
Solution: 27.8 µM (active)

Exercise: Same lookup for NC(=O)NO , please.
Solution: inactive
